- testedSystem: tetanus neurotoxin (TeNT), authentic tetanus holotoxin (Clostridium tetani, UniProt P04958 2-1315)
- Sequence (P04958 2-457 limits assumed, chain 1 of 2): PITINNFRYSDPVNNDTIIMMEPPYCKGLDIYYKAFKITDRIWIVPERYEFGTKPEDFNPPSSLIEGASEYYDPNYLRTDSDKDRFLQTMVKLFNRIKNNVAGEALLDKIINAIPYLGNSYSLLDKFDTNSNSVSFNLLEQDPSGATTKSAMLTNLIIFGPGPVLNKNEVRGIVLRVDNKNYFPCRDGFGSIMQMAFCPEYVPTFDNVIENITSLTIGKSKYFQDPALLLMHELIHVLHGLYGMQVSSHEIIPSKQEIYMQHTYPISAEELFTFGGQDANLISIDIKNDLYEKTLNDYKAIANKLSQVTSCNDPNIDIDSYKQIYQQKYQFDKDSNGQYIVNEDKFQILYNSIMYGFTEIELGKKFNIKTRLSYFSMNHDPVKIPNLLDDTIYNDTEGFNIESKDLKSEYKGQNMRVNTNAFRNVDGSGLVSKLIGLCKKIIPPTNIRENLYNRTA
- Sequence (P04958 458-1315 limits assumed, chain 2 of 2): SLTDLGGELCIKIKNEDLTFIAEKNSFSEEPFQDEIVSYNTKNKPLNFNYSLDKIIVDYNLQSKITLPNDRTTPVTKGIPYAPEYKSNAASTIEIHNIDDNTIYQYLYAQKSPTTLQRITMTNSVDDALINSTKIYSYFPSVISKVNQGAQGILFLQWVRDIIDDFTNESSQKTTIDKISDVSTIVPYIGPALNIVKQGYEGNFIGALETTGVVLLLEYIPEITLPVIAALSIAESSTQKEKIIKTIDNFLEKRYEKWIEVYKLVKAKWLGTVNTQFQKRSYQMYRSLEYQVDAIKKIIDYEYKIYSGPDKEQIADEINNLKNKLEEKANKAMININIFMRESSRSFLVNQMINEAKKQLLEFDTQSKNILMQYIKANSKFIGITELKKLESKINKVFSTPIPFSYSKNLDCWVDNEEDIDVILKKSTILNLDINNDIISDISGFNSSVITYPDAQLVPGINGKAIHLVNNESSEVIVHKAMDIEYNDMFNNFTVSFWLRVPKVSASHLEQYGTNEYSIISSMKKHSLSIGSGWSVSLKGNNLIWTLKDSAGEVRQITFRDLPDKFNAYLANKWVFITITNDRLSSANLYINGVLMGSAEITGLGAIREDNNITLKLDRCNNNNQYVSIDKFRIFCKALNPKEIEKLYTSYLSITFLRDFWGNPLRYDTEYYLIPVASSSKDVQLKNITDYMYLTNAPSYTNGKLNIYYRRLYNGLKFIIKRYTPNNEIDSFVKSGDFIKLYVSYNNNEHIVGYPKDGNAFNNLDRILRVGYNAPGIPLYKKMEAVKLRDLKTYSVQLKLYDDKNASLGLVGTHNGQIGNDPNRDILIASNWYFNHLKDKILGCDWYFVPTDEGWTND
- methodSummary: ELISA: directly coated TeNT, goat anti-llama Ig PO
Measured maximal absorbance value, listed per entry.
measuredParameter: maximal absorbance value

{"binder": "SVT15-3FW4M-GS2-SVA12M2-H6 (bispecific antibody) QVQLQESGGGLVQTGGSLRLSCRASGRAFANYHFGWFRQAPGKDREFVASISWKGGSTYYANFALGRFTSSVDRAESSVYLQMSGLTPEDTATYYCAAHDGGDWNYHTGMDYWGQGTQVTVSSGGGGSGGGSEVQLVESGGGLVQAGGSLRLSCAASGRTFSYYPMAWFRQAPGQEREFVAAIIGADTTYYADSLKGRFTISRDNAKNMVYLQMNSLKPEDTAVYYCAARNTYWSDVYYREGQYTNWGQGTQVTVSSHHHHHH", "measuredParameter": "maximal absorbance value", "reportedMeasurement": "1.36 A450"}
{"binder": "SVG06L (VHH) VHH: QVQLQESGGALVQPGGSLRLSCAASGFPFSAYDMTWVRQAPGQGLEWVSTIHKSGGITTYADSVKGRFTISRDNAKNTLYLQMNNLESEDTAVYYCAKALRAHNSDYVGRNALGSWGEGTLVTVSS", "measuredParameter": "maximal absorbance value", "reportedMeasurement": "0.07 A450"}
